target: SaSiaT (Staphylococcus aureus); test: nanoDSF thermal shift assay, SaSiaT; assay type: binding; conditions: SaSiaT, experiment 1, first capillary, 1.25 mM
Sequence (A0A0H2XJ46 entry or part of it): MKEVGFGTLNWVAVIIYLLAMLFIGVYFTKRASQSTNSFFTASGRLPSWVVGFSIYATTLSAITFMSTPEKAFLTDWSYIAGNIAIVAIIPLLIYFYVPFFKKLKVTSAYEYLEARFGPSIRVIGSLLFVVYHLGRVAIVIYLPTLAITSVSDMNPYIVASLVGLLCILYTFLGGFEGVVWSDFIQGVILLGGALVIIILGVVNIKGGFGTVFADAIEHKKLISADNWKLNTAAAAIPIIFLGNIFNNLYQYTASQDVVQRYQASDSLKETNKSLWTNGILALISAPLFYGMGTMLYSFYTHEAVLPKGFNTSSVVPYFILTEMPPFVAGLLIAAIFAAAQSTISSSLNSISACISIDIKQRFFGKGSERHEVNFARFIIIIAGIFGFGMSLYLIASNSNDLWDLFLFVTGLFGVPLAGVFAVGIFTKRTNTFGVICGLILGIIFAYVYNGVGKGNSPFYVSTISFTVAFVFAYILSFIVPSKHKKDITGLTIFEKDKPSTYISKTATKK
recorded_endpoint: Tm 1 (°C)
Give bare numbers, in °C.

O=C(CF)NC1C(O)CC(O)(C(=O)O)OC1C(O)C(O)CO (stereo not drawn) ... 52.0
CC(=O)NC1C(O)CC(O)(C(=O)O)OC1C(O)C(O)CI (stereo not drawn) ... 49.2

Dear colleague, could you send me Tm 1 for each of the items below? Thanks.
1. CC(=O)NC1C(OCc2cc(Br)cc(Br)c2)CC(O)(C(=O)O)OC1C(O)C(O)CO (stereo not drawn)
2. O=C(CO)N[C@H]1[C@H]([C@H](O)[C@H](O)CO)OC(O)(C(=O)O)C[C@@H]1O (stereo partly drawn) [Neu5Gc, 5-N-glycolyl neuraminic acid, reference compound]
3. O=C(NC1C(O)CC(O)(C(=O)O)OC1C(O)C(O)CO)c1ccccc1 (stereo not drawn)
4. CC(=O)N[C@H]1[C@H]([C@H](O)[C@H](O)CO)OC(C(=O)O)=C[C@@H]1O [Compound 9, reference compound]

Ans:
1. 53.1
2. 53.3
3. 46.2
4. 45.0
